Values from the METLIN SMRT retention time set (Domingo-Almenara et al. 2019)

- test: gradient 5% acetonitrile 3 min, to 50% in 2 min, to 85% in 15 min, held 3 min, 100 µL/min
- details: column: Zorbax Extend-C18 2.1 x 50 mm; eluents: water / acetonitrile, 0.1% formic acid
Outcome: 1 (yes) for RP-LC retention time of at least 700 s; 0 (no) for anything lower.

Dear colleague, could you confirm whether O=C(O)c1cccc2c1CCN2C(=O)c1ccccc1 has RP-LC retention time at or above 700 s?
1 (yes)

Evaluate CCc1cccc(C)c1Nc1c(-c2ccc(C)cc2)nc2nc(C)cc(C)n12 : RP-LC retention time at minimum 700 s?
1 (yes)

Hello, I need to know if CCN1CCN(S(=O)(=O)c2ccc(Cl)c(C(F)(F)F)c2)CC1 has measured RP-LC retention time not below 700 s. Thanks!
0 (no)

Decide: RP-LC retention time of CCc1nc2cc3c(cc2n1CC(=O)Nc1ccc2c(c1)OCCCO2)OCCO3 >= 700 s?
0 (no)

Decide: is the reported value of RP-LC retention time for Cc1c(NC(=O)OC[C@@H]2COCCN2)cn2ncnc(Nc3ccc4c(cnn4Cc4cccc(F)c4)c3)c12 equal to or greater than 700 s?
0 (no)

For this compound, is measured RP-LC retention time 700 s or higher? CCOC(=O)c1cccc(NC(=O)C2CCCN(c3ncnc4c3nc3n4CCCCC3)C2)c1 (centres undefined)
1 (yes)

Check the entry CCOc1ccc(S(=O)(=O)N2CCC(C(=O)NCc3cccnc3)CC2)cc1 : does RP-LC retention time equal or exceed 700 s?
0 (no)

Can Cc1cc(C)cc(NS(=O)(=O)c2cc(-c3[nH]ncc3C(=O)N3CCCCC3)oc2C)c1 be said to have RP-LC retention time at or above 700 s?
1 (yes)

###

- test: gradient 5% acetonitrile 3 min, to 50% in 2 min, to 85% in 15 min, held 3 min, 100 µL/min
- details: column: Zorbax Extend-C18 2.1 x 50 mm; eluents: water / acetonitrile, 0.1% formic acid
assay_readout: RP-LC retention time (s)
Express your answer in s, writing the number without its unit.

Note RP-LC retention time for the compound shown: CCCc1cc(=O)n(CC(=O)Nc2ccc(C)cc2Cl)c(-c2ccc(Cl)cc2)n1
1080

Please supply the value of reported RP-LC retention time for the item C=CCNC(=O)C1CCCN(C(=O)Nc2ccc(NC(=O)Nc3ccccc3F)cc2)C1 (centres undefined)
731

Hello, please tell me recorded RP-LC retention time for this one: COc1ccc(S(=O)(=O)N2CCC(c3noc(-c4cnccn4)n3)C2)cc1 (centres undefined)
784

Indicate its recorded RP-LC retention time; the compound in question is CCC(=O)N1CCCC1c1nc2ccccc2n1CC(=O)N1CCCC1 (centres undefined)
584

Tell me its RP-LC retention time given Cc1ccc(Nc2c(-c3ccc(N(C)C)cc3)nc3ncccn23)c(C)c1 as the entry.
782

Please give measured RP-LC retention time of the following entry: Cc1cccc2nnc(N3CCN(C(=O)c4ccc5c(c4)OCO5)CC3)n12
556

# return recorded RP-LC retention time for input Cc1nn(-c2ccccc2)c2c1N(CC(=O)N1CCN(c3ccccc3)CC1)C(=O)CS2
839

Answer with the recorded RP-LC retention time for the compound listed here: CCCn1c(-c2cccc(C(=O)N3CCC4(CC3)OCCO4)c2)nc2cccnc21
684

Check the records and state RP-LC retention time for CCc1nn2c(CNC(=O)c3ccc(OC)cc3)c(-c3ccccc3)nc2s1
881
